B1: Hairpin Ribozyme (parent)
chain: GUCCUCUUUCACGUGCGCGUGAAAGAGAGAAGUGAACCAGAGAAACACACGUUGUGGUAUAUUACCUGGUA

Variants of: B1
Experiment: self-cleavage, relative activity (ratio to wild type); higher = more cleavage; co-transcriptional
Returns class 1 if the recorded self-cleavage is greater than or equal to 0.3, and class 0 otherwise.

query: Evaluate U7C G57U : self-cleavage at minimum 0.3?
result: class 0

query: Request: G21C G56C
result: class 0

query: Request: G42U A71U
result: class 0

query: Request: C16G G57U
result: class 0

query: Request: G42U A49G
result: class 0

query: Request: U7G U63C
result: class 0

query: Request: A22G A59U
result: class 0

query: Request: A11G G51A
result: class 1

query: Request: C38U U53C
result: class 1

query: Request: U7G C18G
result: class 1

query: Request: A35G
result: class 1

query: Request: G1C A43U
result: class 0

query: Request: A35U A43U
result: class 0

query: Request: A22C G42A
result: class 0

query: Request: A26G A43G
result: class 0

query: Request: G15C G17U
result: class 1

query: Request: A39C U70G
result: class 0

query: Request: A36U A44U
result: class 0
